target: Estrogen receptor (Homo sapiens) + Estrogen receptor beta (Homo sapiens) (UniProt P03372+Q92731); test: OT_ER_ERaERb_0480: Odyssey Thera (OT) 8-hour HEK293T Protein-Complementation Assay for Estrogen Receptor-alpha/-beta Heterodimer (AID 2283352)
Sequence (P03372 whole entry, looked up): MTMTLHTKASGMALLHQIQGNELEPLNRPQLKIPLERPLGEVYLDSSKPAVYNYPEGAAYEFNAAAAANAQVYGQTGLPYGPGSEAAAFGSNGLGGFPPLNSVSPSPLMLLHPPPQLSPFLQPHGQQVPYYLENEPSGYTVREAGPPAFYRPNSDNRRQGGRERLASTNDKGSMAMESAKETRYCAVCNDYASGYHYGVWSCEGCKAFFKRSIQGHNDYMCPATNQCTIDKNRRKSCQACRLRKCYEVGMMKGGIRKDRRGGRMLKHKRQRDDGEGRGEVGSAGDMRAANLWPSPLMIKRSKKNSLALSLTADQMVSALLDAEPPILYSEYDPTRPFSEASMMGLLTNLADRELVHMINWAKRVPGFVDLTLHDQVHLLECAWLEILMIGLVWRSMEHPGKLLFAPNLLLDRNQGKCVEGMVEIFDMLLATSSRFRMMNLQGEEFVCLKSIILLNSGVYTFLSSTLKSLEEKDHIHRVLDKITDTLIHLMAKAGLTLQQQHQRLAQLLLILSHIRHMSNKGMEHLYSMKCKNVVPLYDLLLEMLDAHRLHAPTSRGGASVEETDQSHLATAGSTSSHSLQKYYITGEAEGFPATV
Sequence (Q92731 whole entry, looked up): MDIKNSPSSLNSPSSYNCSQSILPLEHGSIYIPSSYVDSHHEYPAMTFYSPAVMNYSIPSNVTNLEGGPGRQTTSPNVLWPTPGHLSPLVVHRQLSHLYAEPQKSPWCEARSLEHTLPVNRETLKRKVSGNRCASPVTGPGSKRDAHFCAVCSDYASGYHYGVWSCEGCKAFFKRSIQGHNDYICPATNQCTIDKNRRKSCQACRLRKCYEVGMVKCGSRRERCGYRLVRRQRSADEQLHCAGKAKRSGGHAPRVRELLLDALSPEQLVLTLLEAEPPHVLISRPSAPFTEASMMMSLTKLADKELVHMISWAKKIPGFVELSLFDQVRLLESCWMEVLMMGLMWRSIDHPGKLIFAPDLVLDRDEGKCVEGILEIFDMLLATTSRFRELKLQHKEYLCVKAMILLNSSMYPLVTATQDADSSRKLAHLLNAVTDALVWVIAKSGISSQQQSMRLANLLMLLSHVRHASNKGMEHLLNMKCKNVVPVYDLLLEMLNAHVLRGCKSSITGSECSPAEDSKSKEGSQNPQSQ
Records with an inconclusive call do not appear. Calls of active or inactive are those of the source. Rule for the calls: active = hit-call score of the fitted dose curve at least 0.9, where 1 is the maximum; inconclusive = response in the unintended direction; inactive = score below 0.9.
Quantity: outcome

Solved cases (10 shown):
OCC(CO)n1cnc(-c2ccc(F)cc2)c1-c1ccnc(Oc2ccccc2)n1 ... inactive
CCCCCCCCCC[N+](C)(C)[O-] ... inactive
CSc1ccc(Oc2ccc(S(N)(=O)=O)cc2CN(C)C)cc1C ... inactive
O=C1CCCCC1 ... inactive
Cc1ccc(C(C)(C)C)c(O)c1 ... inactive
Oc1ccc(O)cc1 ... inactive
CC(C)OC(=O)C(C)(C)Oc1ccc(C(=O)c2ccc(Cl)cc2)cc1 ... inactive
CC1(C)C(=O)NC(=O)N1CO ... inactive
CCC(C)N(C)C(=O)c1cc2ccccc2c(-c2ccccc2Cl)n1 (centres undefined) ... inactive
NC1CCCCC1 ... inactive

Request: Look up outcome for this compound: COc1ccc(OC(F)(F)F)cc1CN[C@H]1CCCN[C@H]1c1ccccc1
Result: inactive

----------
read-out: Cytochrome P450 (CYP1A2), CYP1A2 (gene 1544); experiment: LTEA_HepaRG_CYP1A2: Life Technologies and Expression Analysis (LTEA) Assay for Cytochrome P450 (CYP1A2) using HepaRG (AID 2283479); conditions: mRNA level, 48 h; actives raise or lower the signal
Calls of active or inactive are those of the source. The calls were made as follows: active = hit-call score of the fitted dose curve at least 0.9, where 1 is the maximum; inactive = score below 0.9.
In this exercise, the only acceptable responses are True = active, False = inactive

Completed entries (count: 4):
CC(C)(O)c1ccc(CNC(=O)c2cccnc2Oc2ccc(F)cc2)cc1 ... False
O=C1CCCCC1 ... False
CO[C@@H]1COCC[C@@H]1N[C@@H]1CC[C@@](C(=O)N2CCc3ncc(C(F)(F)F)cc3C2)(C(C)C)C1 ... False
CC(=O)S[C@H](C(=O)N[C@H]1Cc2ccccc2[C@H]2CCC[C@@H](C(=O)O)N2C1=O)C(C)C ... False

Request: Assay outcome for CCC(C)N(C)C(=O)c1cc2ccccc2c(-c2ccccc2Cl)n1 (stereo unspecified) : what was it?
Result: True

Request: What about this molecule? CC(C)COC(=O)CCCCC(=O)OCC(C)C
Result: False

----------
read-out: Interferon-gamma inducible Protein 10 (IP10), CXCL10 (gene 3627); test: BSK_BE3C_IP10: BioMAP Diversity Plus: BE3C Assay for Interferon-gamma inducible Protein 10 (IP10) Biomarker Activity (AID 2283034); conditions: primary human bronchial epithelial cells; actives raise or lower the signal
Calls of active or inactive are those of the source. The calls were made as follows: active = hit-call score of the fitted dose curve at least 0.9, where 1 is the maximum; inactive = score below 0.9.
In this exercise, the only acceptable responses are active, inactive

CCc1cc(C2=C(C(=O)O)N(c3ccccc3C(F)(F)F)S(=O)(=O)c3ccccc32)cc2c1OCO2 ... inactive

Request: Assay outcome for Oc1ccccc1O : what was it?
Result: inactive

Request: What about this compound? C/C=C/c1ccc(OC)cc1
Result: inactive

Request: What about this compound? CC(C)c1cccc(C(C)C)c1
Result: inactive

Request: What about this compound? CC1=C(C)S(=O)(=O)CCS1(=O)=O
Result: inactive

Request: What about this compound? Cc1ccc(-c2cc(C(F)(F)F)nn2-c2ccc(S(N)(=O)=O)cc2)cc1
Result: active

----------
read-out: Low-density lipoprotein receptor (LDLR), LDLR (gene 3949); assay: BSK_CASM3C_LDLR: BioMAP Diversity Plus: CASM3C Assay for Low-density lipoprotein receptor (LDLR) Biomarker Activity (AID 2283045); conditions: primary human coronary artery smooth muscle cells; actives raise or lower the signal;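 note: LDLR protein level on the cell surface quantified by ELISA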
Calls of active or inactive are those of the source. The calls were made as follows: active = hit-call score of the fitted dose curve at least 0.9, where 1 is the maximum; inactive = score below 0.9.
In this exercise, the only acceptable responses are true for active, false for inactive

Completed entries (count: 3):
CC(=O)OC1CC(C)OC(C)O1 (stereo unspecified) ... false
CCCCCCCCCCCCCCOS(=O)(=O)O ... false
CC1=C(C)S(=O)(=O)CCS1(=O)=O ... false

Request: Assay outcome for CCCCCCC(CCCCCCCCCCC(=O)OCC(COC(C)=O)OC(C)=O)OC(C)=O (stereo unspecified) : what was it?
Result: false

Request: What about this compound? O=C(O)c1cccnc1
Result: false

----------
assay: VALA_TUBIPS_Antagonist_CellCount: Viability Assessment in the VALA Sciences human iPS-derived Endothelial Tubule Formation (TUBIPS) Antagonism Assay (AID 2284335)
Results filed as inconclusive are left out. Active and inactive are the calls of the source. How the source made its calls: active means hit-call score of the fitted dose curve at least 0.9, where 1 is the maximum; inconclusive means response in the unintended direction; inactive means score below 0.9.
In this exercise, the only acceptable responses are active, inactive

Nc1nc(Cl)nc2c1ncn2[C@H]1C[C@H](O)[C@@H](CO)O1 ... active

Request: Assay outcome for Cc1ccc(-c2cc(C(F)(F)F)nn2-c2ccc(S(N)(=O)=O)cc2)cc1 : what was it?
Result: inactive

Request: What about this compound? COC(=O)[C@H]1[C@H]2C[C@@H]3c4[nH]c5cc(OC)ccc5c4CCN3C[C@H]2C[C@@H](OC(=O)c2cc(OC)c(OC)c(OC)c2)[C@@H]1OC
Result: inactive

Request: What about this compound? O=C1OC(c2ccc(O)cc2)(c2ccc(O)cc2)c2ccccc21
Result: inactive

----------
target: rat Constitutive Nitric Oxide Synthase (CNOS), Nos1 (gene 24598) (UniProt P29476); test: NVS_ENZ_rCNOS: NovaScreen (NVS) Enzymatic Assay for rat Constitutive Nitric Oxide Synthase (CNOS) (AID 2283236)
Sequence (P29476 whole entry, looked up): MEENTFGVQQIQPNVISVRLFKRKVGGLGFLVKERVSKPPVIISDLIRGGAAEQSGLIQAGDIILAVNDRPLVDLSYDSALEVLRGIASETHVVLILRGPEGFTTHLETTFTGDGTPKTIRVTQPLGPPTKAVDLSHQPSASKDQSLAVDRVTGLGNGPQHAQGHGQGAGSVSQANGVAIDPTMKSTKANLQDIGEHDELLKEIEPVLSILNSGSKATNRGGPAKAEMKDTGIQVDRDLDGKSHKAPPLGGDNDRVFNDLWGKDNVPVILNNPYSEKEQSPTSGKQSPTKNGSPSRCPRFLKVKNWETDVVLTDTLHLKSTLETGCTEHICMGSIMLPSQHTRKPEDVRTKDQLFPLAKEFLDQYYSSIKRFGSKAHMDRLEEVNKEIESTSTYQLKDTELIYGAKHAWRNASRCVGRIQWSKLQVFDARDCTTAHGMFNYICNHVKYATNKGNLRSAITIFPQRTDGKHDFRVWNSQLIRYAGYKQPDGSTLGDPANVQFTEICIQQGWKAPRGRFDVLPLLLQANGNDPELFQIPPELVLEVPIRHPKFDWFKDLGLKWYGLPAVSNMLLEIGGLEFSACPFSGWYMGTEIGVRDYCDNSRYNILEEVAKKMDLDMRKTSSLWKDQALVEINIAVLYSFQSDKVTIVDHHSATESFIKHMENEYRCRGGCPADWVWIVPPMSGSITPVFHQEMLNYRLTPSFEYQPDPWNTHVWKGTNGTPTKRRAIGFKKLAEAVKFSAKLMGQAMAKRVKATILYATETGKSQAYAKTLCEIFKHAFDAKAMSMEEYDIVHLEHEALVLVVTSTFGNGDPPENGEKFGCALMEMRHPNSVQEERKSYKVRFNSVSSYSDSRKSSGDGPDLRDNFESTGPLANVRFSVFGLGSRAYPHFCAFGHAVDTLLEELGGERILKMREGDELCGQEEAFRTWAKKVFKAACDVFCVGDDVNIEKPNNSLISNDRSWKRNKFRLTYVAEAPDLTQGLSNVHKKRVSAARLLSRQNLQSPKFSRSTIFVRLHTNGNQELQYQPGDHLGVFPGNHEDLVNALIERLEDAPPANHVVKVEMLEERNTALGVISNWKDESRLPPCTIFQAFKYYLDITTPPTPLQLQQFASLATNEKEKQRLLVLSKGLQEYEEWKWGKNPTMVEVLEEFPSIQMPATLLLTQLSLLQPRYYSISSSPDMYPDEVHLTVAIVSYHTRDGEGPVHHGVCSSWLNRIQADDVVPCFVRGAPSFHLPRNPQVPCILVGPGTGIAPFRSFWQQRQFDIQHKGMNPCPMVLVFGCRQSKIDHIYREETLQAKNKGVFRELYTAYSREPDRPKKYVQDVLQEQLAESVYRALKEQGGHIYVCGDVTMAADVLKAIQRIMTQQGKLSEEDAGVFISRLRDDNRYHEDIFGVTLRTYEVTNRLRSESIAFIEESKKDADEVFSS
Inconclusive results are not listed. Active and inactive are the calls of the source. The calls were made as follows: active = hit-call score of the fitted dose curve at least 0.9, where 1 is the maximum; inconclusive = response in the unintended direction; inactive = score below 0.9.
In this exercise, the only acceptable responses are active, inactive

O=C1c2c(O)cccc2Cc2cccc(O)c21 ... active
O=C(O)c1[nH]n(-c2ccc(S(=O)(=O)O)cc2)c(=O)c1N=Nc1ccc(S(=O)(=O)O)cc1 ... active
CC(=O)S[C@H](C(=O)N[C@H]1Cc2ccccc2[C@H]2CCC[C@@H](C(=O)O)N2C1=O)C(C)C ... inactive

From here, focus on the item given below.
Request: Assay outcome for CCC(C)N(C)C(=O)c1cc2ccccc2c(-c2ccccc2Cl)n1 (centres undefined) : what was it?
Result: inactive

----------
read-out: TIMP metallopeptidase inhibitor 1 (TIMP1), TIMP1 (gene 7076); test: BSK_hDFCGF_TIMP1: BioMAP Diversity Plus: hDFCGF Assay for TIMP metallopeptidase inhibitor 1 (TIMP1) Biomarker Activity (AID 2283062); settings: primary human foreskin fibroblasts; actives raise or lower the signal
Calls of active or inactive are those of the source. Rule for the calls: active = hit-call score of the fitted dose curve at least 0.9, where 1 is the maximum; inactive = score below 0.9.
In this exercise, the only acceptable responses are t for active, f for inactive

COC(=O)[C@H]1[C@H]2C[C@@H]3c4[nH]c5cc(OC)ccc5c4CCN3C[C@H]2C[C@@H](OC(=O)c2cc(OC)c(OC)c(OC)c2)[C@@H]1OC ... f
O=C1CCCCC1 ... f
Cc1occc(=O)c1O ... f

Request: Assay outcome for CC(N)=O : what was it?
Result: f

Request: What about this compound? C/C=C/c1ccc(OC)cc1
Result: f

Request: What about this compound? Cc1ccc(-c2cc(C(F)(F)F)nn2-c2ccc(S(N)(=O)=O)cc2)cc1
Result: f

Request: What about this compound? CO[C@@H]1COCC[C@@H]1N[C@@H]1CC[C@@](C(=O)N2CCc3ncc(C(F)(F)F)cc3C2)(C(C)C)C1
Result: f

Request: What about this compound? CCCCCCCCCC[N+](C)(C)[O-]
Result: f

Request: What about this compound? CC(C)(C)c1ccccc1
Result: f

Request: What about this compound? CSc1ccc(Oc2ccc(S(N)(=O)=O)cc2CN(C)C)cc1C
Result: f

Request: What about this compound? CC(C)COC(=O)CCCCC(=O)OCC(C)C
Result: f

Request: What about this compound? CC(C)c1cccc(C(C)C)c1
Result: f

Request: What about this compound? CCN(CC)CCOc1ccc(C(=C(Cl)c2ccccc2)c2ccccc2)cc1
Result: t

Request: What about this compound? CC(=O)[C@@]1(O)CC[C@H]2[C@@H]3CCC4=CC(=O)CC[C@]4(C)[C@H]3CC[C@@]21C
Result: f

Request: What about this compound? O=C(NS(=O)(=O)/C=C/c1cccs1)c1ccc(F)cc1Br
Result: f

Request: What about this compound? CCc1nc(N)nc(N)c1-c1ccc(Cl)cc1
Result: f

Request: What about this compound? CC(=O)S[C@H](C(=O)N[C@H]1Cc2ccccc2[C@H]2CCC[C@@H](C(=O)O)N2C1=O)C(C)C
Result: f

Request: What about this compound? C=CCCCCCCCCCCCC
Result: f

Request: What about this compound? COC(=O)CCCC(=O)OC
Result: f

Request: What about this compound? CC(C)NCC(O)c1ccc(O)c(O)c1 (configuration not stated)
Result: f

Request: What about this compound? CCCCCCCC(=O)OC
Result: f

Request: What about this compound? CC(C)(O)c1ccc(CNC(=O)c2cccnc2Oc2ccc(F)cc2)cc1
Result: f
